- SYSTEM_TESTED: Muscarinic acetylcholine receptor M2 (Sus scrofa) (UniProt P06199)
- ASSAY_NOTES: Cooperativity factor pAlpha at porcine heart ventricle muscarinic acetylcholine receptor M2.
Reported pAlpha by item:
Give your answer as a number; write no unit.

Some entries whose results are on file:
Can you look up the measured pAlpha of C[N+](C)(CCCCCC[N+](C)(C)CCCN1C(=O)c2ccccc2C1=O)CCCN1C(=O)c2ccccc2C1=O for me?
-0.47

Okay, and C[N+](C)(CCCCCC[N+](C)(C)CCCN1C(=O)c2ccc(C(F)(F)F)cc2C1=O)CCCN1C(=O)c2ccc(C(F)(F)F)cc2C1=O ?
-0.22

Okay, and C[N+](C)(CCCCCC[N+](C)(C)CCCN1C(=O)c2cccc3cccc(c23)C1=O)CCCN1C(=O)c2ccccc2C1=O ?
-0.2

Okay, and C[N+](C)(CCCCCC[N+](C)(C)CCCN1C(=O)c2nccnc2C1=O)CCCN1C(=O)c2nccnc2C1=O ?
-0.44

---
Can you look up the measured pAlpha of CC(C)(CN1C(=O)c2cccc3cccc(c23)C1=O)C[N+](C)(C)CCCCCC[N+](C)(C)CC(C)(C)CN1C(=O)c2cccc3cccc(c23)C1=O for me?
0.53

Okay, and C[N+](C)(CCCCCC[N+](C)(C)CCCN1C(=O)c2nccnc2C1=O)CCCN1C(=O)c2ccccc2C1=O ?
-0.59

Okay, and Cc1ccc2c(c1)C(=O)N(CCC[N+](C)(C)CCCCCC[N+](C)(C)CC(C)(C)CN1C(=O)c3cccc4cccc(c34)C1=O)C2=O ?
0.32

Okay, and C[N+](C)(CCCCCC[N+](C)(C)CCCN1C(=O)c2cccc3cccc(c23)C1=O)CCCN1C(=O)c2cccc3cccc(c23)C1=O ?
-0.28

Okay, and C[N+](C)(CCCCCC[N+](C)(C)CCCN1C(=O)c2cc3ccccc3cc2C1=O)CCCN1C(=O)c2cc3ccccc3cc2C1=O ?
-0.85

Okay, and CC(C)(CN1C(=O)c2ccccc2C1=O)C[N+](C)(C)CCCCCC[N+](C)(C)CCCN1C(=O)c2cccc3cccc(c23)C1=O ?
-0.005

* * *

- SYSTEM_TESTED: UniProt P06199
- ASSAY_NOTES: Tested for binding of [3H]N-methylscopolamine ([3H]NMS) at porcine heart ventricle muscarinic acetylcholine receptor M2 expressed as -logKa.
OBSERVATION_TYPE: -logKa
Give your answer as a number; write no unit.

Some entries whose results are on file:
Can you look up the measured -logKa of Cc1ccc2c(c1)C(=O)N(CCC[N+](C)(C)CCCCCC[N+](C)(C)CC(C)(C)CN1C(=O)c3ccc(C)cc3C1=O)C2=O for me?
7.41

Okay, and C[N+](C)(CCCCCC[N+](C)(C)CCCN1C(=O)c2nccnc2C1=O)CCCN1C(=O)c2nccnc2C1=O ?
5.44

Okay, and CC(C)(CN1C(=O)c2ccccc2C1=O)C[N+](C)(C)CCCCCC[N+](C)(C)CC(C)(C)CN1C(=O)c2cccc3cccc(c23)C1=O ?
7.41

Okay, and Cc1ccc2c(c1)C(=O)N(CC(C)(C)C[N+](C)(C)CCCCCC[N+](C)(C)CCCN1C(=O)c3ccccc3C1=O)C2=O ?
7.26

--- query ---
Can you look up the measured -logKa of CC(C)(CN1C(=O)c2cccc3cccc(c23)C1=O)C[N+](C)(C)CCCCCC[N+](C)(C)CC(C)(C)CN1C(=O)c2cccc3cccc(c23)C1=O for me?
7.51

* * *

Reported -logKa by item:
- SYSTEM_TESTED: Muscarinic acetylcholine receptor M2 (Sus scrofa) (UniProt P06199)
- Sequence (whole entry): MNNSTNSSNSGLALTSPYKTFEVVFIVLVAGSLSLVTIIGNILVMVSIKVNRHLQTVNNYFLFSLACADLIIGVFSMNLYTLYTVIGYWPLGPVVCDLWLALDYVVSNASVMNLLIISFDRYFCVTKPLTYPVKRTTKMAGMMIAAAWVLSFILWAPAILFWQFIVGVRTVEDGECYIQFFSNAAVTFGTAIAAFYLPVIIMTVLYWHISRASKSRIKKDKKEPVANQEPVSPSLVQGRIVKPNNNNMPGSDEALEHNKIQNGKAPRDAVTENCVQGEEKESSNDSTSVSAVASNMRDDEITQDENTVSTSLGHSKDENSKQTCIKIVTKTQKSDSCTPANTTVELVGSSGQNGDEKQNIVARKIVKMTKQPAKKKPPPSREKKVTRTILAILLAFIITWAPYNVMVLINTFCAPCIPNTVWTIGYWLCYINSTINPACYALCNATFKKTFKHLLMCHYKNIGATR
- ASSAY_NOTES: Tested for binding of [3H]N-methylscopolamine ([3H]NMS) at porcine heart ventricle muscarinic acetylcholine receptor M2 expressed as -logKa.
Give your answer as a number; write no unit.

Can you look up the measured -logKa of Cc1ccc2c(c1)C(=O)N(CCC[N+](C)(C)CCCCCC[N+](C)(C)CCCN1C(=O)c3cccc4cccc(c34)C1=O)C2=O for me?
8.01

Okay, and C[N+](C)(CCCCCC[N+](C)(C)CCCN1C(=O)c2cccc3cccc(c23)C1=O)CCCN1C(=O)c2cccc3cccc(c23)C1=O ?
8.11

--- query ---
Can you look up the measured -logKa of C[N+](C)(CCCCCC[N+](C)(C)CCCN1C(=O)C2C3c4ccccc4C(c4ccccc43)C2C1=O)CCCN1C(=O)C2C3c4ccccc4C(c4ccccc43)C2C1=O (stereo not drawn) for me?
8.12

* * *

Reported p alphaKa by item:
- SYSTEM_TESTED: UniProt P06199
- Sequence (whole entry): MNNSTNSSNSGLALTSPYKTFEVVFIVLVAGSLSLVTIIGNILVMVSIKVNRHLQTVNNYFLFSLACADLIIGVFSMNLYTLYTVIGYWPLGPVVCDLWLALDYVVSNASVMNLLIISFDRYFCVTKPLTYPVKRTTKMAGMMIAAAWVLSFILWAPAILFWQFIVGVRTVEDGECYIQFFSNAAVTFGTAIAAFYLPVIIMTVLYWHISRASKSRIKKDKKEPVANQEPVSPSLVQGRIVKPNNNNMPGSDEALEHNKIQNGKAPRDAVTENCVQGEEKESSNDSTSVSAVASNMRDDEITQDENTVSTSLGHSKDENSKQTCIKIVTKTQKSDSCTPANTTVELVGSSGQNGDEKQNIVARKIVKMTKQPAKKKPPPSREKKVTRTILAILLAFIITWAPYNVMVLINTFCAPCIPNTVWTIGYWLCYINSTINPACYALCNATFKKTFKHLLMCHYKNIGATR
- ASSAY_NOTES: Binding affinity for [3H]NMS-occupied muscarinic acetylcholine receptor M2 from porcine heart ventricle.

Some entries whose results are on file:
Can you look up the measured p alphaKa of CC(C)(CN1C(=O)c2ccccc2C1=O)C[N+](C)(C)CCCCCC[N+](C)(C)CC(C)(C)CN1C(=O)c2cccc3cccc(c23)C1=O for me?
7.97

Okay, and Cc1ccc2c(c1)C(=O)N(CCC[N+](C)(C)CCCCCC[N+](C)(C)CCCN1C(=O)c3ccc(C)cc3C1=O)C2=O ?
6.75

Okay, and C[N+](C)(CCCCCC[N+](C)(C)CCCN1C(=O)c2nccnc2C1=O)CCCN1C(=O)c2ccccc2C1=O ?
5.66

Okay, and Cc1ccc2c(c1)C(=O)N(CCC[N+](C)(C)CCCCCC[N+](C)(C)CC(C)(C)CN1C(=O)c3cccc4cccc(c34)C1=O)C2=O ?
8.23

Okay, and Cc1ccc2c(c1)C(=O)N(CC(C)(C)C[N+](C)(C)CCCCCC[N+](C)(C)CCCN1C(=O)c3cccc4cccc(c34)C1=O)C2=O ?
7.44

Okay, and Cc1ccc2c(c1)C(=O)N(CC(C)(C)C[N+](C)(C)CCCCCC[N+](C)(C)CC(C)(C)CN1C(=O)c3cccc4cccc(c34)C1=O)C2=O ?
8.19

---
Can you look up the measured p alphaKa of CC(C)(C)c1ccc2c(c1)C(=O)N(CCC[N+](C)(C)CCCCCC[N+](C)(C)CCCN1C(=O)c3ccc(C(C)(C)C)cc3C1=O)C2=O for me?
6.49

Okay, and CC(C)(CN1C(=O)c2ccccc2C1=O)C[N+](C)(C)CCCCCC[N+](C)(C)CCCN1C(=O)c2ccccc2C1=O ?
6.86

Okay, and C[N+](C)(CCCCCC[N+](C)(C)CCCN1C(=O)c2cc(F)c(F)cc2C1=O)CCCN1C(=O)c2ccccc2C1=O ?
6.31

Okay, and Cc1ccc2c(c1)C(=O)N(CC(C)(C)C[N+](C)(C)CCCCCC[N+](C)(C)CC(C)(C)CN1C(=O)c3ccccc3C1=O)C2=O ?
6.9

* * *

Reported pAlpha by item:
- SYSTEM_TESTED: Muscarinic acetylcholine receptor M2 (Sus scrofa) (UniProt P06199)
- ASSAY_NOTES: Cooperativity factor pAlpha at porcine heart ventricle muscarinic acetylcholine receptor M2.
Give your answer as a number; write no unit.

Some entries whose results are on file:
Can you look up the measured pAlpha of C[N+](C)(CCCCCC[N+](C)(C)CCCN1C(=O)C2C3c4ccccc4C(c4ccccc43)C2C1=O)CCCN1C(=O)c2ccccc2C1=O (stereo not drawn) for me?
-1.21

Okay, and Cc1ccc2c(c1)C(=O)N(CC(C)(C)C[N+](C)(C)CCCCCC[N+](C)(C)CC(C)(C)CN1C(=O)c3ccccc3C1=O)C2=O ?
0.17

Okay, and C[N+](C)(CCCCCC[N+](C)(C)CCCN1C(=O)c2cc(Cl)c(Cl)cc2C1=O)CCCN1C(=O)c2ccccc2C1=O ?
-0.17

Okay, and Cc1ccc2c(c1)C(=O)N(CCC[N+](C)(C)CCCCCC[N+](C)(C)CCCN1C(=O)c3ccc(C)cc3C1=O)C2=O ?
-0.33

Okay, and CC(C)(C)c1ccc2c(c1)C(=O)N(CCC[N+](C)(C)CCCCCC[N+](C)(C)CCCN1C(=O)c3ccccc3C1=O)C2=O ?
-0.81

---
Can you look up the measured pAlpha of Cc1ccc2c(c1)C(=O)N(CCC[N+](C)(C)CCCCCC[N+](C)(C)CC(C)(C)CN1C(=O)c3ccc(C)cc3C1=O)C2=O for me?
0.03

Okay, and Cc1ccc2c(c1)C(=O)N(CC(C)(C)C[N+](C)(C)CCCCCC[N+](C)(C)CC(C)(C)CN1C(=O)c3cccc4cccc(c34)C1=O)C2=O ?
0.29

Okay, and CC(C)(CN1C(=O)c2cccc3cccc(c23)C1=O)C[N+](C)(C)CCCCCC[N+](C)(C)CCCN1C(=O)c2cccc3cccc(c23)C1=O ?
0.17
